assay notes: Dynamic solubility at 37 °C (HPLC; residual solid by XRPD)
Assay type: physicochemical
condition context: hydrochloric acid aqueous solution, 37 °C, pH 1, simulated gastric fluid, thermodynamic from solid, hydrochloric acid aqueous solution pH = 1.0, 37 °C, 2 h

# compound, reading unit, solubility at 2 h
rows = [
    ("CCc1nc(-c2ccc(-c3ccc(CCC(N)(CO)CO)cc3)cc2)co1.Cl [crystal form A]", "µg/mL", 280),
]

====

assay notes: Dynamic solubility at 37 °C (HPLC; residual solid by XRPD)
Type: physicochemical
condition context: Fasted State Simulated Intestinal Fluid (FaSSIF), 37 °C, pH 8, fassif, thermodynamic from solid, FaSSIF (pH = 8.0), 1 h

# compound, reading unit, solubility at 1 h
records = [
    ("CCc1nc(-c2ccc(-c3ccc(CCC(N)(CO)CO)cc3)cc2)co1.Cl [crystal form A]", "mg/mL", 0.01),
]

====

assay notes: Dynamic solubility at 37 °C (HPLC; residual solid by XRPD)
Type: physicochemical
condition context: acetic acid-sodium acetate buffer, 37 °C, pH 4, aqueous buffer, thermodynamic from solid, acetic acid-sodium acetate buffer pH = 4.0, 37 °C, 1 h
Description: Samples of the crystal form A and the crystal form B of ethoximod were taken and prepared into saturated solutions at 37 °C in Fasted State Simulated Intestinal Fluid (FaSSIF, pH = 8.0), Fed State Simulated Intestinal Fluid (FeSSIF, pH = 5.0), Simulated Gastric Fluid (SGF, pH = 1.0), a hydrochloric acid aqueous solution (pH = 1.0), an acetic acid-sodium acetate buffer system (pH = 4.0), a phosphate buffer system (pH = 6.8) and water. […]

# compound, reading unit, solubility at 1 h
data = [
    ("CCc1nc(-c2ccc(-c3ccc(CCC(N)(CO)CO)cc3)cc2)co1.Cl [crystal form A]", "µg/mL", 2490),
]

====

assay notes: Dynamic solubility at 37 °C (HPLC; residual solid by XRPD)
Assay type: physicochemical
condition context: acetic acid-sodium acetate buffer, 37 °C, pH 4, aqueous buffer, thermodynamic from solid, acetic acid-sodium acetate buffer pH = 4.0, 37 °C, 4 h

# compound, reading unit, solubility at 4 h
measured = [
    ("CCc1nc(-c2ccc(-c3ccc(CCC(N)(CO)CO)cc3)cc2)co1.Cl [crystal form A]", "µg/mL", 2740),
]

====

assay notes: Dynamic solubility at 37 °C (HPLC; residual solid by XRPD)
Assay type: physicochemical
condition context: Simulated Gastric Fluid (SGF), 37 °C, pH 1, simulated gastric fluid, thermodynamic from solid, SGF (pH = 1.0), 24 h
Protocol: Samples of the crystal form A and the crystal form B of ethoximod were taken and prepared into saturated solutions at 37 °C in Fasted State Simulated Intestinal Fluid (FaSSIF, pH = 8.0), Fed State Simulated Intestinal Fluid (FeSSIF, pH = 5.0), Simulated Gastric Fluid (SGF, pH = 1.0), a hydrochloric acid aqueous solution (pH = 1.0), an acetic acid-sodium acetate buffer system (pH = 4.0), a phosphate buffer system (pH = 6.8) and water. […]
quantity name: solubility at 24 h (µg/mL)

# compound, recorded number
measured = [
    ("CCc1nc(-c2ccc(-c3ccc(CCC(N)(CO)CO)cc3)cc2)co1.Cl [crystal form A]", 270),
]

====

assay notes: Dynamic solubility at 37 °C (HPLC; residual solid by XRPD)
Type: physicochemical
condition context: acetic acid-sodium acetate buffer, 37 °C, pH 4, aqueous buffer, thermodynamic from solid, acetic acid-sodium acetate buffer pH = 4.0, 37 °C, 24 h
quantity name: solubility at 24 h

# molecule, result
records = [
    ("CCc1nc(-c2ccc(-c3ccc(CCC(N)(CO)CO)cc3)cc2)co1.Cl [crystal form A]", "2590 µg/mL"),
]

====

assay notes: Dynamic solubility at 37 °C (HPLC; residual solid by XRPD)
Type: physicochemical
condition context: hydrochloric acid aqueous solution, 37 °C, pH 1, simulated gastric fluid, thermodynamic from solid, hydrochloric acid aqueous solution pH = 1.0, 37 °C, 4 h
quantity name: solubility at 4 h (µg/mL)

# compound, recorded number
data = [
    ("CCc1nc(-c2ccc(-c3ccc(CCC(N)(CO)CO)cc3)cc2)co1.Cl [crystal form A]", 290),
]

====

assay notes: Dynamic solubility at 37 °C (HPLC; residual solid by XRPD)
Format: physicochemical
condition context: Fed State Simulated Intestinal Fluid (FeSSIF), 37 °C, pH 5, fessif, thermodynamic from solid, FeSSIF (pH = 5.0), 1 h
quantity name: solubility at 1 h

# molecule, result
measured = [
    ("CCc1nc(-c2ccc(-c3ccc(CCC(N)(CO)CO)cc3)cc2)co1.Cl [crystal form A]", "1540 µg/mL"),
]

====

assay notes: Dynamic solubility at 37 °C (HPLC; residual solid by XRPD)
Format: physicochemical
condition context: Simulated Gastric Fluid (SGF), 37 °C, pH 1, simulated gastric fluid, thermodynamic from solid, SGF (pH = 1.0), 4 h
quantity name: solubility at 4 h (µg/mL)

# compound, quantity name, recorded number
data = [
    ("CCc1nc(-c2ccc(-c3ccc(CCC(N)(CO)CO)cc3)cc2)co1.Cl [crystal form A]", "solubility at 4 h", 260),
]

====

assay notes: Equilibrium solubility in organic solvents at room temperature (HPLC; solid by XRPD)
Type: physicochemical
condition context: ethanol, organic solvent or mixture, thermodynamic from solid, equilibrium for 24 h

# compound, reading unit, solubility at 24 h
rows = [
    ("CCc1nc(-c2ccc(-c3ccc(CCC(N)(CO)CO)cc3)cc2)co1.Cl [crystal form A]", "µg/mL", 3470),
]

====

assay notes: Dynamic solubility at 37 °C (HPLC; residual solid by XRPD)
Assay type: physicochemical
condition context: Fasted State Simulated Intestinal Fluid (FaSSIF), 37 °C, pH 8, fassif, thermodynamic from solid, FaSSIF (pH = 8.0), 4 h
quantity name: solubility at 4 h (µg/mL)

# compound, recorded number
data = [
    ("CCc1nc(-c2ccc(-c3ccc(CCC(N)(CO)CO)cc3)cc2)co1.Cl [crystal form A]", 11),
]

====

assay notes: Dynamic solubility at 37 °C (HPLC; residual solid by XRPD)
Format: physicochemical
condition context: phosphate buffer, 37 °C, pH 6.8, aqueous buffer, thermodynamic from solid, phosphate buffer pH = 6.8, 37 °C, 4 h
quantity name: solubility at 4 h

# compound, result
measured = [
    ("CCc1nc(-c2ccc(-c3ccc(CCC(N)(CO)CO)cc3)cc2)co1.Cl [crystal form A]", "0.14 µg/mL"),
]

====

assay notes: Dynamic solubility at 37 °C (HPLC; residual solid by XRPD)
Format: physicochemical
condition context: hydrochloric acid aqueous solution, 37 °C, pH 1, simulated gastric fluid, thermodynamic from solid, hydrochloric acid aqueous solution pH = 1.0, 37 °C, 24 h
quantity name: solubility at 24 h (µg/mL)

# compound, reading unit, recorded number
rows = [
    ("CCc1nc(-c2ccc(-c3ccc(CCC(N)(CO)CO)cc3)cc2)co1.Cl [crystal form A]", "µg/mL", 380),
]

====

assay notes: Dynamic solubility at 37 °C (HPLC; residual solid by XRPD)
Assay type: physicochemical
condition context: hydrochloric acid aqueous solution, 37 °C, pH 1, simulated gastric fluid, thermodynamic from solid, hydrochloric acid aqueous solution pH = 1.0, 37 °C, 1 h

# compound, solubility at 1 h
records = [
    ("CCc1nc(-c2ccc(-c3ccc(CCC(N)(CO)CO)cc3)cc2)co1.Cl [crystal form A]", "280 µg/mL"),
]

====

assay notes: Dynamic solubility at 37 °C (HPLC; residual solid by XRPD)
Type: physicochemical
condition context: Fed State Simulated Intestinal Fluid (FeSSIF), 37 °C, pH 5, fessif, thermodynamic from solid, FeSSIF (pH = 5.0), 24 h

# compound, solubility at 24 h, µg/mL
records = [
    ("CCc1nc(-c2ccc(-c3ccc(CCC(N)(CO)CO)cc3)cc2)co1.Cl [crystal form A]", 2670),
]

====

assay notes: Dynamic solubility at 37 °C (HPLC; residual solid by XRPD)
Format: physicochemical
condition context: Fasted State Simulated Intestinal Fluid (FaSSIF), 37 °C, pH 8, fassif, thermodynamic from solid, FaSSIF (pH = 8.0), 24 h

# molecule, solubility at 24 h
rows = [
    ("CCc1nc(-c2ccc(-c3ccc(CCC(N)(CO)CO)cc3)cc2)co1.Cl [crystal form A]", "26 µg/mL"),
]

====

assay notes: Equilibrium solubility in organic solvents at room temperature (HPLC; solid by XRPD)
Assay type: physicochemical
condition context: acetone, organic solvent or mixture, thermodynamic from solid, equilibrium for 24 h

# molecule, solubility at 24 h / µg/mL
measured = [
    ("CCc1nc(-c2ccc(-c3ccc(CCC(N)(CO)CO)cc3)cc2)co1.Cl [crystal form A]", 30),
]

====

assay notes: Dynamic solubility at 37 °C (HPLC; residual solid by XRPD)
Assay type: physicochemical
condition context: phosphate buffer, 37 °C, pH 6.8, aqueous buffer, thermodynamic from solid, phosphate buffer pH = 6.8, 37 °C, 2 h

# compound, reading unit, solubility at 2 h
measured = [
    ("CCc1nc(-c2ccc(-c3ccc(CCC(N)(CO)CO)cc3)cc2)co1.Cl [crystal form A]", "µg/mL", 0.07),
]
